Below, each entry is listed with its recorded MIC.
- System: Enterococcus faecium
- Assay details: Antibacterial activity against vancomycin, teicoplanin and erythromycin resistant Enterococcus faecium 02D31P2 strain
- Assay type: functional
Outcome measure: MIC (µg/mL)

CO[C@@H]1[C@@H](OC(=O)c2ccc(C)[nH]2)[C@@H](O)[C@H](Oc2ccc3c(O)c(C(=O)NCCN(C)C)c(=O)oc3c2C)OC1(C)C :: 10
CO[C@@H]1[C@@H](OC(=O)c2ccc(C)[nH]2)[C@@H](O)[C@H](Oc2ccc3c(O)c(C(C)=O)c(=O)oc3c2C)OC1(C)C :: 2.5
CONC(=O)c1c(O)oc2c(C)c(O[C@@H]3OC(C)(C)[C@H](OC)[C@@H](OC(=O)c4ccc(C)[nH]4)[C@H]3O)ccc2c1=O :: 2.5

----------
- Test system: Streptococcus pyogenes
- Assay details: Antibacterial activity against Streptococcus pyogenes 02A1UC1 strain
- Format: functional
Below, each entry is listed with its recorded MIC.
Outcome measure: MIC (µg/mL)

CCOC(=O)c1c(O)oc2c(C)c(O[C@@H]3OC(C)(C)[C@H](OC)[C@@H](OC(=O)c4ccc(C)[nH]4)[C@H]3O)ccc2c1=O :: 0.3
CO[C@@H]1[C@@H](OC(=O)c2ccc(C)[nH]2)[C@@H](O)[C@H](Oc2ccc3c(O)c(C(=O)NCCN(C)C)c(=O)oc3c2C)OC1(C)C :: 1.2
CCOCC(=O)c1c(O)oc2c(C)c(O[C@@H]3OC(C)(C)[C@H](OC)[C@@H](OC(=O)c4ccc(C)[nH]4)[C@H]3O)ccc2c1=O :: 0.3
CCOC(=O)/C(=N\OC)c1c(O)oc2c(C)c(O[C@@H]3OC(C)(C)[C@H](OC)[C@@H](OC(=O)c4ccc(C)[nH]4)[C@H]3O)ccc2c1=O :: 0.15
CO[C@@H]1[C@@H](OC(=O)c2ccc(C)[nH]2)[C@@H](O)[C@H](Oc2ccc3c(O)c(C(N)=O)c(=O)oc3c2C)OC1(C)C :: 0.15
CO/N=C(\C)c1c(O)oc2c(C)c(O[C@@H]3OC(C)(C)[C@H](OC)[C@@H](OC(=O)c4ccc(C)[nH]4)[C@H]3O)ccc2c1=O :: 0.3
CONC(=O)c1c(O)oc2c(C)c(O[C@@H]3OC(C)(C)[C@H](OC)[C@@H](OC(=O)c4ccc(C)[nH]4)[C@H]3O)ccc2c1=O :: 0.15

----------
- Test system: Enterococcus faecium
- Assay details: Antibacterial activity against vancomycin, teicoplanin and erythromycin resistant Enterococcus faecium 02D31P2 strain
- Format: functional
Below, each entry is listed with its recorded MIC.
Outcome measure: MIC (µg/mL)

CO[C@@H]1[C@@H](OC(=O)c2ccc(C)[nH]2)[C@@H](O)[C@H](Oc2ccc3c(O)c(C(=O)NCCO)c(=O)oc3c2C)OC1(C)C :: 2.5
CO[C@@H]1[C@@H](OC(=O)c2ccc(C)[nH]2)[C@@H](O)[C@H](Oc2ccc3c(O)c(/C(C)=N/OCCSc4ncc[nH]4)c(=O)oc3c2C)OC1(C)C :: 10
CO[C@@H]1[C@@H](OC(=O)c2ccc(C)[nH]2)[C@@H](O)[C@H](Oc2ccc3c(O)c(C(N)=O)c(=O)oc3c2C)OC1(C)C :: 2.5
CCOCC(=O)c1c(O)oc2c(C)c(O[C@@H]3OC(C)(C)[C@H](OC)[C@@H](OC(=O)c4ccc(C)[nH]4)[C@H]3O)ccc2c1=O :: 5
CO[C@@H]1[C@@H](OC(=O)c2ccc(C)[nH]2)[C@@H](O)[C@H](Oc2ccc3c(O)c(C(=O)CSC)c(=O)oc3c2C)OC1(C)C :: 5
